- System tested: Human IP6K1 (Homo sapiens, UniProt Q92551)
- Construct: GST (N, cleaved yes); made in house; host or cells: C43 E. coli, pGEX-6P-2
- Sequence (Q92551 whole entry): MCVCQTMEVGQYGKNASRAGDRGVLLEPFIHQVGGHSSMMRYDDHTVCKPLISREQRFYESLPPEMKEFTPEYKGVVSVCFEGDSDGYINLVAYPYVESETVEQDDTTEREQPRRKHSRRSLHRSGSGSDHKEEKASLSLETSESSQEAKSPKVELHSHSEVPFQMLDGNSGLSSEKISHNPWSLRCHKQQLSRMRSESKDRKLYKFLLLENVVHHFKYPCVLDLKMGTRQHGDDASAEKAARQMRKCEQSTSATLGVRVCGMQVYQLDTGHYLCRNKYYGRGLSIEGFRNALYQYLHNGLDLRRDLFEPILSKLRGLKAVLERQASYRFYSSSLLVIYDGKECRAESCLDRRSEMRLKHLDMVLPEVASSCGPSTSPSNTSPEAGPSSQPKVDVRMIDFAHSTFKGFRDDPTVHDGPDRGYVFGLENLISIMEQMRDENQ
- Assay method text: IP6K1 inhibition dose-response assay (ADP-Glo Max)
- Assay type: biochemical
- Condition summary: 62.5μM ATP, 400μM IP6, 60nM IP6K1, 30 minutes, 37°C; read-out: IC50 IP6K1
Parameter measured: pIC50
Here pIC50 is given on a logarithmic scale as minus log10 of the concentration in mol/L.

What pIC50 appears in the records for this compound with Human IP6K1 (Homo sapiens, UniProt Q92551)? O=[N+]([O-])c1ccc(CNc2nc(NCc3cccc(C(F)(F)F)c3)nc3nc[nH]c23)cc1 [TNP] 4.92

====

- System tested: Human IP6K1 (Homo sapiens)
- Construct: GST (N, cleaved yes); made in house; host or cells: C43 E. coli, pGEX-6P-2
- Assay method text: IP6K1 high-throughput screen of the Sigma LOPAC (ADP-Glo Max, single point);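 also: final compound concentration 10µM in 5% DMSO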
- Format: biochemical
- Condition summary: Sigma LOPAC single-point screen; Z-score from plate average and StDev
Structures can show the parent of a compound that is named as a salt.
Reported Z-score values follow for various molecules
Just the number.

The cases that follow already have their Z-score on record.
CC(=O)NBr [N-Bromoacetamide]: 1.281
COc1ccc(Cl)cc1C(=O)NCCc1ccc(S(=O)(=O)NC(=O)NC2CCCCC2)cc1 [Glibenclamide]: 0.4787
C1CNCCN1.COc1cc(C(O)CO)ccc1O.COc1cc(C(O)CO)ccc1O (centres unmarked): 0.7163
Oc1c2ccccc2c2c3c(cccc13)N=N2: 0.3838
O=C1Nc2ccccc2/C1=C1/Nc2ccccc2/C1=N\O: 0.5855

// returns reported Z-score for input c1ccc2c(c1)OCC(C1=NCCN1)O2 (centres unmarked) [Idazoxan hydrochloride] 0.633

Another molecule: CC(=O)NCCc1ccc(O)c(O)c1.O [N-Acetyldopamine monohydrate] 0.5053

Entry to check: O=C(O)C1CN(CCCP(=O)(O)O)CCN1 (racemic) [(±)-CPP] 0.8786

====

- System tested: Human IP6K1 (Homo sapiens)
- Construct: GST (N, cleaved yes); made in house; host or cells: C43 E. coli, pGEX-6P-2
- Assay method text: IP6K1 high-throughput screen of the Sigma LOPAC (ADP-Glo Max, single point);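 also: final compound concentration 10µM in 5% DMSO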
- Format: biochemical
- Condition summary: Sigma LOPAC single-point screen, ADP-Glo Max raw signal per well
Counter-ions that a name gives are not always drawn.
Mark yes only when Raw Signal stays strictly below 60000. Values equal to the cut-off are no.

Answered examples (5):
CC(C)(Oc1ccc(C2CC2(Cl)Cl)cc1)C(=O)O (stereo not shown) [Ciprofibrate]: no
N=C(NCCC[C@H](N)C(=O)O)N[N+](=O)[O-]: yes
O=C(O)CCCCCCCC(=O)O: no
COc1ccccc1N1CCN(CCCNc2c(C)c(=O)n(C)c(=O)n2C)CC1: no
CC[N+](C)(C)c1cccc(O)c1 [Edrophonium chloride]: yes

Please let me know if Br.C=CCN1CCc2c(cc(O)c(O)c2Cl)C(c2ccccc2)C1 (racemic) [(±)-Chloro-APB hydrobromide] shows Raw Signal below 60000. yes

// query: `CCc1cccc(N(C)C(N)=Nc2cccc3ccccc23)c1` no

Same again, this time with COc1ccccc1N1CCN(CC(O)COc2cccc3ccccc23)CC1.Cl.Cl (stereo not shown) [Naftopidil dihydrochloride] yes

Can you handle CCC1(C)CC(=O)NC1=O (stereo not shown) [Ethosuximide] next? yes

Also `N[C@@H](Cc1ccc(N(CCCl)CCCl)cc1)C(=O)O` , if possible. yes

Also C[N+](C)(C)CCOP(=O)([O-])OP(=O)([O-])OC[C@H]1O[C@@H](n2ccc(N)nc2=O)[C@H](O)[C@@H]1O.[Na+] [Citicoline sodium] , if possible. no

Can you check COc1ccc(Cl)cc1C(=O)NCCc1ccc(S(=O)(=O)NC(=O)NC2CCCCC2)cc1 [Glibenclamide] next? yes

And then `O=C(O)CCc1nc(-c2ccccc2)c(-c2ccccc2)o1` , what is it? yes

Try this molecule too: CN1CCN(CC(=O)N2c3ccccc3C(=O)Nc3cccnc32)CC1 [Pirenzepine dihydrochloride] no

And the next one, `O=C1Nc2ccccc2/C1=C1/Nc2ccccc2/C1=N\O` ? yes

Source: paper PMC5706701
